target: CYP2C9 (Homo sapiens, UniProt P11712)
Sequence (P11712 whole entry): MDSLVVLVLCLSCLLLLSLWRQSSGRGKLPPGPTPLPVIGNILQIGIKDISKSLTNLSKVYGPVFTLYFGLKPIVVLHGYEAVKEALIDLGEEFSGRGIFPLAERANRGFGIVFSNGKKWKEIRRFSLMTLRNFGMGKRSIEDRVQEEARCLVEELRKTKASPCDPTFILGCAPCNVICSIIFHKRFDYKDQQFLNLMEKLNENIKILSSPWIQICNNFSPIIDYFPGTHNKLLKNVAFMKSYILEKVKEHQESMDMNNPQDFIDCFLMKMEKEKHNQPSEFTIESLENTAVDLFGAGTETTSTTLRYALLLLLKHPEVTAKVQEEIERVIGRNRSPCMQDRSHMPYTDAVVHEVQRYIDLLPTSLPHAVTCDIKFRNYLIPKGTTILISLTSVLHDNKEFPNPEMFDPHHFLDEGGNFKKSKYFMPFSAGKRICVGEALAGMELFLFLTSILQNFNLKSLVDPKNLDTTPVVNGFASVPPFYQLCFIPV
Assign IC50 to each entry below.

Prompt: Item under review: COc1ccc(-c2coc3cc(OCC4CS4)ccc3c2=O)c(OC)c1 (centres unmarked) . Reported IC50?
Completion: 19.2 µM

Prompt: Cc1cc(=O)c2c(O)cc(OCC3CS3)cc2o1 (centres unmarked) ?
Completion: > 50 µM

----------
Field: pIC50. Provide a value for each of the molecules that follow.
biological target: CYP450 2D6 (Homo sapiens, UniProt P10635); test: CYP450 enzyme inhibition, 2D6; type: in vitro ADME; details: compound 0.05~50 μM; read-out: IC50 against CYP450 isotype 2D6
Sequence (P10635 whole entry): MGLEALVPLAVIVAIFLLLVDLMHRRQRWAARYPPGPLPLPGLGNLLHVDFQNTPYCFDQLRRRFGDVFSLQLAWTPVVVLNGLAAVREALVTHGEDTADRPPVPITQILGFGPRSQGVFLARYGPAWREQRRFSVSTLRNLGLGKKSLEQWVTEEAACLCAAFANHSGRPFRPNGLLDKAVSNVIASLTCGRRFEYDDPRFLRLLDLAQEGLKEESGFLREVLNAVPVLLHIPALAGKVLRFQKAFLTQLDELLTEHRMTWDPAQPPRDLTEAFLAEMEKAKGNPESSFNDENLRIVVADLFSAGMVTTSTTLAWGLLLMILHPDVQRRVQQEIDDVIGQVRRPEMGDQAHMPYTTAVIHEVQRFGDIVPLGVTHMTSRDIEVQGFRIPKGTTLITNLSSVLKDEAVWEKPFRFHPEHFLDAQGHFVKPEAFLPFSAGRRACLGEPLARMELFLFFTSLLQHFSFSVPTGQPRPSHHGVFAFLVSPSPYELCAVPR
pIC50: −log10 of the molar value.

Prompt: Quick check: pIC50 of Cc1cc(=O)c2c(O)cc(OCC3CS3)cc2o1 (centres unmarked) ?
Completion: < 4.30

Prompt: Same for COc1ccc(-c2coc3cc(OCC4CS4)ccc3c2=O)c(OC)c1 (centres unmarked)
Completion: < 4.30

----------
Answer each item with its documented Revertant colonies/plate (Mean ± S.D.).
Tested on: Salmonella typhimurium TA98
Conditions: TA98, without S-9 mix; J2 40, NA49 200, positive controls 1-2 μg/plate
Protocol: To perform the Ames test of J2 and NA49, the number of revertant colonies was counted on each compound-treated plate at the maximum concentration at which the compound was soluble and nontoxic to the S. typhimurium tester strains (Supplementary Material S1). […] For the hERG K^+ channel binding assay of J2 and NA49, the inhibitory activity against the hERG K^+ channel and its ligand was measured using a red fluorescent hERG channel ligand tracer. […]
State the answer as a number, implicitly in colonies/plate.

Prompt: Name the reported Revertant colonies/plate (Mean ± S.D.) value associated with the compound COc1ccc(-c2coc3cc(OCC4CS4)ccc3c2=O)c(OC)c1 (stereo not shown)
Completion: 19

Prompt: Similarly, [N-]=[N+]=[N-].[Na+] [sodium azide, reference compound] ?
Completion: 441

Prompt: Now this one: Cc1cc(=O)c2c(O)cc(OCC3CS3)cc2o1 (stereo not shown)
Completion: 57

Prompt: Similarly, O=[N+]([O-])c1ccc2c(c1)Cc1ccccc1-2 [2-nitrofluorene, reference compound] ?
Completion: 462
